# STUDY_TARGET: UniProt O43614
# Sequence (O43614 whole entry): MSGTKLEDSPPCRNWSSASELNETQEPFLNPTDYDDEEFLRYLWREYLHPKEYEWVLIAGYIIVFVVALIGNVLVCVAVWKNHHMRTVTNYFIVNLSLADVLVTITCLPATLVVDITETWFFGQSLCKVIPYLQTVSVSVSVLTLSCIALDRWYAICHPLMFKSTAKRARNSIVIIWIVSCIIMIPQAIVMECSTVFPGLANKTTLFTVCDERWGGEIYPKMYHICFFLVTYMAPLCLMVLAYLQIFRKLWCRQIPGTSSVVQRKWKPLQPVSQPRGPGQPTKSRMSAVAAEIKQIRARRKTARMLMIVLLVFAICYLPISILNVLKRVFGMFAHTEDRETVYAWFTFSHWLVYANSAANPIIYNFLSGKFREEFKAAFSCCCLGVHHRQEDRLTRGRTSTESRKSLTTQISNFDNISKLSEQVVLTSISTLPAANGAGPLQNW
# ASSAY_METHOD_TEXT: Orexin Receptor Cell-Based Functional Assay: Measurement of [Ca2+]i using a FLIPR: CHO—OX1 or CHO—OX2 cells were seeded into black-walled clear-base 384-well plates (Corning, catalog #3712) at a density of 20,000 cells per well in F12-K medium supplemented with 10% FBS and then incubated in a 5% CO2, 37° C. incubator overnight to reach 90% confluency. The cells were incubated with equal volume of calcium 6 loading buffer (Molecular Devices, Inc.) containing 2.5 mM probenecid at 37° C. for 2 h, followed by test compounds (dose-range 0.1 nM-10 μM) for another 30 min. The plates were then placed into a FLIPR (Molecular Devices, Inc.) to monitor fluorescence (λ excitation 488 nm, λ emission 540 nm) before and after the addition of EC90 of [OX].
READOUT_NAME: IC50

Complete the entry with IC50 for "C[C@@H]1CC(F)(F)CN(C(=O)c2nn(C)cc2-c2ccccc2)[C@@H]1COc1ccc(C(F)(F)F)cn1"
> 5 µM
